Biological target: Potassium voltage-gated channel subfamily A member 5 (Homo sapiens, UniProt P22460)
Sequence (P22460 whole entry): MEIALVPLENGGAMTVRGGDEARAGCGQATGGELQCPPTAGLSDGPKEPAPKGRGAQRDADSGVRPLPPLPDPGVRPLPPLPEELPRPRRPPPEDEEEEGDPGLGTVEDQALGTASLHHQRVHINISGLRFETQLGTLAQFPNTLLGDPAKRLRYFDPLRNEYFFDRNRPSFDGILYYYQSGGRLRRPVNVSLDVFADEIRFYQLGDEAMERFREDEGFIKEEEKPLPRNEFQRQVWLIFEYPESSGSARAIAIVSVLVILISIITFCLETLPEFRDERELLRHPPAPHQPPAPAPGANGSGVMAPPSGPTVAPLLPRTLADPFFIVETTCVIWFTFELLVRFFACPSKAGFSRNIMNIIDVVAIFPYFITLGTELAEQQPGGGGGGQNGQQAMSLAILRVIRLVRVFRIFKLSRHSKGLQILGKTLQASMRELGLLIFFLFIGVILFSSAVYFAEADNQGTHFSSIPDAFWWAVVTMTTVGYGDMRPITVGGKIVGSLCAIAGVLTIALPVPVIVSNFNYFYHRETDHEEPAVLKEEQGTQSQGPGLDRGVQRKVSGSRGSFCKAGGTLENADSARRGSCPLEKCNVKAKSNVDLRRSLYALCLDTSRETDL
Assay: Inhibition of ultra-rapid delayed rectifier current Ikur in human atrial cells at 1uM
Type: functional, cell-based
Conditions: Cardiac atrium
experimental.endpoint: inhibition (%)

# example entries with known answers
| compound | assay.result |
| --- | --- |
| Cc1ccc(C2SCCN2C(=O)CCc2ccccc2)cc1C (configuration not stated) | 87 |
| COc1ccc(CCN2C(=O)CSC23CCc2cc(Cl)ccc23)cc1 (configuration not stated) | 66 |
| COc1ccc(CCN2C(=O)CSC2(C)c2ccc(C)c(C)c2)cc1 (configuration not stated) | 96 |
| COc1ccc(CC(=O)N2CCSC2c2ccc(C)c(C)c2)cc1 (configuration not stated) | 77 |
| COc1ccc(CCCC(=O)N2CCSC2c2ccc(C)c(C)c2)cc1 (configuration not stated) | 68 |
| Cc1ccc(C2SCCN2C(=O)COc2ccccc2)cc1 (configuration not stated) | 80 |
| O=C(COc1ccccc1)N1CCSC1c1ccc(Cl)c(Cl)c1 (configuration not stated) | 93 |
| O=C(COc1ccccc1)N1CCSC1c1ccc(C2CC2)cc1 (configuration not stated) | 64 |

1. Cc1ccc(C2SCC(=O)N2OCc2ccccc2)cc1C (configuration not stated)
2. CN(C)c1ccc(C2SCCN2C(=O)COc2ccccc2)cc1 (configuration not stated)
3. COc1ccc(C2SCCN2C(=O)COc2ccccc2)cc1Cl (configuration not stated)
4. Cc1ccc(C2SCCN2C(=O)OCc2ccccc2)cc1C (configuration not stated)
[Q] Hi! Can you put these in order of inhibition, lowest number first? Please list the labels in the order you were asked to rank them.
[A] 4, 3, 2, 1
(4: 18%, 3: 35%, 2: 55%, 1: 92%)

----------
Target: UniProtKB P22460
Test: Inhibition of ultra-rapid delayed rectifier current Ikur in human atrial cells at 1uM
Assay type: functional, cell-based
Conditions: Cardiac atrium
experimental.endpoint: inhibition (%)

Would you please look over these solved cases?
| compound | inhibition, % |
| --- | --- |
| COc1ccc(CCC(=O)N2CCSC2c2ccc(C)c(C)c2)cc1 (configuration not stated) | 89 |
| COc1ccc(/C=C/C(=O)N2CCSC2c2ccc(C)c(C)c2)cc1 (configuration not stated) | 92 |
| O=C1CSC(c2ccc(Cl)cc2)N1OCc1ccccc1 (configuration not stated) | 35 |
| COc1ccc(C2SCCN2C(=O)COc2ccccc2)cc1 (configuration not stated) | 72 |
| COc1ccc(CCN2C(=O)CSC2(C)c2ccc(C)cc2)cc1 (configuration not stated) | 88 |

I. COc1ccc(CCN2C(=O)CSC23CCc2c(C)cccc23)cc1 (configuration not stated)
II. Cc1ccc(C2SCCN2C(=O)COc2ccccc2)cc1C (configuration not stated)
III. COc1ccccc1CON1C(=O)CSC1c1ccc(Cl)cc1 (configuration not stated)
[Q] Ascending by inhibition, please: list the compounds accordingly. Please respond with the labels ordered as the question requires.
[A] III, I, II

----------
Biological target: UniProtKB P22460
Assay: Inhibition of Kv1.5 mediated ultra-rapid delayed rectifier current Ikur in human atrial cells
pIC50: −log10 of the molar value.
experimental.endpoint: pIC50

a. O=C1CSC(c2ccc(Cl)cc2)N1OCc1ccccc1 (stereo not drawn)
b. COc1ccc(CCN2C(=O)CSC23CCc2c(C)cccc23)cc1 (stereo not drawn)
[Q] Choose between a and b : whose measured pIC50 value is numerically larger? State your choice using its label.
[A] b
(b: 6.31, a: 6.00)

A. COc1cccc(CON2C(=O)CSC2c2ccc(C)c(C)c2)c1 (stereo not drawn)
B. O=C1CSC(c2ccc(Cl)c(Cl)c2)N1OCc1ccccc1 (stereo not drawn)
[Q] Thinking about recorded pIC50 values, which is higher, A or B ? Reply with the label of the item you choose.
[A] A
(A: 6.57, B: 6.33)

I. COc1ccc(CON2C(=O)CSC2c2ccccc2)cc1 (stereo not drawn)
II. COc1ccc(CON2C(=O)CSC2c2ccc(C)c(C)c2)cc1 (stereo not drawn)
[Q] In the pair I and II , the larger recorded pIC50 belongs to which? Which one? Tell me its label.
[A] II
